- assay procedure: Solubility of AC-8632
- Format: physicochemical
- experimental context: DMF, organic solvent or mixture; read-out: solubility in DMF
assay metric: solubility (µg/mL)
State the answer as a number, implicitly in µg/mL.

stdin: Could you tell me which solubility is on file for "CCCCCCCCCCCCCCOc1ccc(C(=O)O)o1" ?
stdout: 10000

----------
- assay procedure: Solubility of AC-8632
- Type: physicochemical
- experimental context: ethanol, organic solvent or mixture; read-out: solubility in ethanol
assay metric: solubility (µg/mL)
State the answer as a number, implicitly in µg/mL.

stdin: Could you tell me which solubility is on file for "CCCCCCCCCCCCCCOc1ccc(C(=O)O)o1" ?
stdout: 1000
